Hey, just so you know, these numbers are from paper PMC6009956.

target: EGFR (Homo sapiens); test: ADP-Glo kinase assay, EGFR; type: biochemical; parameters: purchased BPS Bioscience (assay run externally by the vendor); settings: Log[nM] 0; Set3
Sequence (P00533 25-1210): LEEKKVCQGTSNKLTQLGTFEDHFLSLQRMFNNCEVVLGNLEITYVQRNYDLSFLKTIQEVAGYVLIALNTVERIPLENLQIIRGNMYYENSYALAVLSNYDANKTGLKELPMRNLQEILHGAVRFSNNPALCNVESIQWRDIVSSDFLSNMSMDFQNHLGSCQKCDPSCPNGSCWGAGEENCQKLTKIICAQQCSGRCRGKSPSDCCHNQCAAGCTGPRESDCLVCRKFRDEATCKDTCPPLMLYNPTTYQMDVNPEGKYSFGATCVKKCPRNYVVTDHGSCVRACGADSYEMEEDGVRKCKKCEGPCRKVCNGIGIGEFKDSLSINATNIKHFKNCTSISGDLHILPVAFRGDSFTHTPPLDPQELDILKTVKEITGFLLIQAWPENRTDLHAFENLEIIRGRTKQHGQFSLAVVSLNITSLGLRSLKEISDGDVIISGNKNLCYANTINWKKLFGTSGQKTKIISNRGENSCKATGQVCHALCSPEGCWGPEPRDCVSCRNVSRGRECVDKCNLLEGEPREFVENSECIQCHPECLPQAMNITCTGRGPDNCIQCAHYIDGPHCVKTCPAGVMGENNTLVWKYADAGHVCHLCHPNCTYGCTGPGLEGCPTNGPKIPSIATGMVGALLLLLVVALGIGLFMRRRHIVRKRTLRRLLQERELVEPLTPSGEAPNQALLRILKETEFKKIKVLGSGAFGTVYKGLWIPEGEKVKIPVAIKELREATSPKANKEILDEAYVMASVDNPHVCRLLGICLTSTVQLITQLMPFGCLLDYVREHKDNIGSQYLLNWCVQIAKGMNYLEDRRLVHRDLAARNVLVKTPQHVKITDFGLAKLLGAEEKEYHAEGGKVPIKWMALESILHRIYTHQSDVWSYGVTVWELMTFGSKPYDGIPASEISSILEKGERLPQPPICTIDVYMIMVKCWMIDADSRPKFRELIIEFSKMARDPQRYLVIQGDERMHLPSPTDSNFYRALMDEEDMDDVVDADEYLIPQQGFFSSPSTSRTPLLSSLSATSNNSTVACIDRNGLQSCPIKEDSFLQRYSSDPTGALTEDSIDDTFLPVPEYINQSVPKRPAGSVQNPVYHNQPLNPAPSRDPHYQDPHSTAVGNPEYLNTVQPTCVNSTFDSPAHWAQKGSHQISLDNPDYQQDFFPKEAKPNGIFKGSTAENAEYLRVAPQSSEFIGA
readout: EGFR % Activity Set3 (%)

Below: 3 molecules and their reported EGFR % Activity Set3.
{"columns": ["molecule", "reported_value"],
 "data": [
  ["Cc1ccc(Nc2ncnc3[nH]ccc23)cc1 [Compound 9]", 105],
  ["Clc1ccc(Nc2ncnc3[nH]ccc23)cc1 [Compound 4]", 97],
  ["Clc1ccc(Nc2ncnc3[nH]ccc23)cc1Br [Compound 7]", 53]
]}

(A) c1ccc(Cc2ccc(Nc3ncnc4[nH]ccc34)cc2)cc1 [Compound 18]
(B) Brc1cccc(Nc2ncnc3[nH]ccc23)c1 [Compound 2]
Incoming: Which value of EGFR % Activity Set3 is smaller, the one for A or the one for B ? Refer to your chosen item by its label in the answer.
Outgoing: B
(B: 41%, A: 95%)

(P) Clc1ccccc1Nc1ncnc2[nH]ccc12 [Compound 14]
(Q) Fc1cc(Nc2ncnc3[nH]ccc23)ccc1Cl [Compound 3]
Incoming: Which value of EGFR % Activity Set3 is smaller, the one for P or the one for Q ? Refer to your chosen item by its label in the answer.
Outgoing: Q

---

target: aurora A kinase (AURKA) (Homo sapiens, UniProt O14965); construct: purchased BPS Bioscience (assay run externally by the vendor); assay: ADP-Glo kinase assay, Aurora A; assay type: biochemical; details: Log[nM] 2.0; Set1
Sequence (O14965 whole entry): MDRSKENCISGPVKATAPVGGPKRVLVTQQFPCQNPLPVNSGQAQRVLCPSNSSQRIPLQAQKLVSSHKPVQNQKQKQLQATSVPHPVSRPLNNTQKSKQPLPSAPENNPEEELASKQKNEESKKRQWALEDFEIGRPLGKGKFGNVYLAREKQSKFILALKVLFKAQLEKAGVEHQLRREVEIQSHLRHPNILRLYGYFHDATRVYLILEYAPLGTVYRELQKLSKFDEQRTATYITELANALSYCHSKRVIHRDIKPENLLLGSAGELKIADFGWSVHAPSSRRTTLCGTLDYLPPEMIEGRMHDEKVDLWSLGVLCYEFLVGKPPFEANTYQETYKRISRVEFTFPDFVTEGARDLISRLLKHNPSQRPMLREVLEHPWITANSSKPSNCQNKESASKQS
readout: Aurora A % Activity Set1 (%)

{"columns": ["compound", "experimental_target", "result_unit", "Aurora A % Activity Set1"],
 "data": [
  ["c1ccc(Oc2ccc(Nc3ncnc4[nH]ccc34)cc2)cc1 [Compound 17]", "aurora A kinase (AURKA) (Homo sapiens, UniProt O14965)", "%", 97],
  ["Cc1ccc(Nc2ncnc3[nH]ccc23)cc1 [Compound 9]", "aurora A kinase (AURKA) (Homo sapiens, UniProt O14965)", "%", 102],
  ["Fc1cc(Nc2ncnc3[nH]ccc23)ccc1Cl [Compound 3]", "aurora A kinase (AURKA) (Homo sapiens, UniProt O14965)", "%", 105],
  ["Nc1nc(Nc2cccc(Br)c2)c2cc[nH]c2n1 [Compound 8]", "aurora A kinase (AURKA) (Homo sapiens, UniProt O14965)", "%", 109],
  ["Clc1ccc(Nc2ncnc3[nH]ccc23)cc1 [Compound 4]", "aurora A kinase (AURKA) (Homo sapiens, UniProt O14965)", "%", 105],
  ["Cc1cccc(Nc2ncnc3[nH]ccc23)c1 [Compound 12]", "aurora A kinase (AURKA) (Homo sapiens, UniProt O14965)", "%", 96],
  ["Brc1cccc(Nc2ncnc3[nH]ccc23)c1 [Compound 2]", "aurora A kinase (AURKA) (Homo sapiens, UniProt O14965)", "%", 102],
  ["c1ccc(Nc2ncnc3[nH]ccc23)cc1 [Compound 1]", "aurora A kinase (AURKA) (Homo sapiens, UniProt O14965)", "%", 96],
  ["Clc1ccc(Nc2ncnc3[nH]ccc23)cc1Br [Compound 7]", "aurora A kinase (AURKA) (Homo sapiens, UniProt O14965)", "%", 100],
  ["c1ccc(Cc2ccc(Nc3ncnc4[nH]ccc34)cc2)cc1 [Compound 18]", "aurora A kinase (AURKA) (Homo sapiens, UniProt O14965)", "%", 103],
  ["Brc1ccc(Nc2ncnc3[nH]ccc23)cc1 [Compound 10]", "aurora A kinase (AURKA) (Homo sapiens, UniProt O14965)", "%", 102]
]}
